Recorded CC50 by entry
Experiment: Cytotoxicity in the dengue RVP assay
Type: cell-based
Counter-ions that a name gives are not always drawn.
measured.endpoint: CC50

compound="CN1CCN([C@@H](c2ccccc2)c2ccc(Cl)cc2)CC1 [(S)-CCZ]" reported_measurement="> 31.6 µM"
compound="O[C@H]1[C@H]2c3cc4c(cc3CN3CCC(=C[C@@H]1O)[C@H]23)OCO4 [Lycorine-HCl, reference compound]" reported_measurement="> 31.6 µM"

----------
System: HCV-Luc
Test: HCV-Luc infection assay
Conditions: human
measured.endpoint: selectivity ratio

molecule="OCCOCCN1CCN(C(c2ccccc2)c2ccc(Cl)cc2)CC1 (stereo not drawn) [hydroxyzine]" tested_system=HCV-Luc reported_measurement="318 to 924"
molecule="CN1CCCN(C(c2ccccc2)c2ccc(Cl)cc2)CC1 (stereo not drawn)" tested_system=HCV-Luc reported_measurement="318 to 924"
molecule="Clc1ccc(C(c2ccccc2)N2CCNCC2)cc1 (stereo not drawn)" tested_system=HCV-Luc reported_measurement=188

----------
Biological target: H1-histamine receptor (Homo sapiens, UniProt P35367)
Sequence (P35367 whole entry): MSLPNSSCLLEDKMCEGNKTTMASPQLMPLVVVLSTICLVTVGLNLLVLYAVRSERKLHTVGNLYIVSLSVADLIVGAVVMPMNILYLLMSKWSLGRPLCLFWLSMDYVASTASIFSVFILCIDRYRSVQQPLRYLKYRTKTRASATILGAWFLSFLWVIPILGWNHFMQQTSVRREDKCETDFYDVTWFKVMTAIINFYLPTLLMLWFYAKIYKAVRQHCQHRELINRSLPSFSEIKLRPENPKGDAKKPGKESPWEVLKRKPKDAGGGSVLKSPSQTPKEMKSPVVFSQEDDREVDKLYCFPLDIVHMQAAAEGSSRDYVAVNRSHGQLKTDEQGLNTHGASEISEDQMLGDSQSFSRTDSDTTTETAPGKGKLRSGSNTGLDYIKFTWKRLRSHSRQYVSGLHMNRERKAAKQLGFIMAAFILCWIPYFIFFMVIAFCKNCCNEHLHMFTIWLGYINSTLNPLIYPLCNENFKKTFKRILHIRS
Assay: β-arrestin H1-histamine receptor assay
Assay type: cell-based
Structures can show the parent of a compound that is named as a salt.
measured.endpoint: Antihistamine activity at 10 nM (%)

compound="CN1CCN([C@H](c2ccccc2)c2ccc(Cl)cc2)CC1 [(R)-CCZ]" measured_endpoint="Antihistamine activity at 10 nM" reported_measurement=88.00
compound="CN1CCN([C@@H](c2ccccc2)c2ccc(Cl)cc2)CC1 [(S)-CCZ]" measured_endpoint="Antihistamine activity at 10 nM" reported_measurement=41.70
compound="CN1CCN(C(c2ccccc2)c2ccc(Cl)cc2)CC1 (racemic) [Racemic CCZ, chlorcyclizine HCl]" measured_endpoint="Antihistamine activity at 10 nM" reported_measurement=72.60
compound="Clc1ccc([C@H](c2ccccc2)N2CCNCC2)cc1 [(S)-Nor-CCZ]" measured_endpoint="Antihistamine activity at 10 nM" reported_measurement=2.24

----------
Target: HCV-Luc
Experiment: HCV-Luc assay in 40% human serum
Format: cell-based, Hepatitis C virus
Details: read-out: protein binding adjusted EC50
pEC50: −log10 of the molar value.
measured.endpoint: pEC50

compound="CN1CCN([C@@H](c2ccccc2)c2ccc(Cl)cc2)CC1 [(S)-CCZ]" measured_endpoint=pEC50 reported_measurement=6.62

----------
Test system: HCV-Luc
Test: HCV-Luc infection assay
Settings: read-out: HCV-Luc EC50; Huh7.5.1 cells; luciferase signal 48 hours after treatment
pEC50: −log10 of the molar value.
pEC50 by entry:
measured.endpoint: pEC50

compound="CN1CCN([C@@H](c2ccccc2)c2ccc(Cl)cc2)CC1 [(S)-CCZ]" tested_system=HCV-Luc reported_measurement=7.62
compound="NC(=O)COCCN1CCN(C(c2ccccc2)c2ccc(Cl)cc2)CC1 (stereo not shown) [cetirizine amide]" tested_system=HCV-Luc reported_measurement=6.99
compound="CN1CCN([C@H](c2ccccc2)c2ccc(Cl)cc2)CC1 [(R)-CCZ]" tested_system=HCV-Luc reported_measurement=7.70
compound="Clc1ccc([C@H](c2ccccc2)N2CCNCC2)cc1 [(S)-Nor-CCZ]" tested_system=HCV-Luc reported_measurement=7.47

----------
Test system: dengue reporter virus particle
Assay: Dengue reporter virus particle
Type: cell-based
Conditions: read-out: EC50 in dengue RVP assay
Where a name gives a salt, the structure may show the parent alone.
measured.endpoint: EC50

molecule="CN1CCN([C@@H](c2ccccc2)c2ccc(Cl)cc2)CC1 [(S)-CCZ]" reported_measurement="1880 nM"
molecule="O[C@H]1[C@H]2c3cc4c(cc3CN3CCC(=C[C@@H]1O)[C@H]23)OCO4 [Lycorine-HCl, reference compound]" reported_measurement="40.6 nM"
